Record form. Attribute: Papp at 4 h, 50 μM. Fill in for each entry.
- EXPERIMENTAL DETAILS: PAMPA-BBB assay
- Type: in vitro ADME
- CONDITION PARAMETERS: pH 7.4

MOLECULE | READOUT TYPE | RECORDED VALUE
CC(=O)[C@H]1CC[C@H]2[C@@H]3CCC4=CC(=O)CC[C@]4(C)[C@H]3CC[C@]12C [Progesterone, reference compound] | Papp at 4 h, 50 μM | > 0.4 ×10⁻⁶ cm/s

Let's switch to this molecule now.
Consider the molecule CNC(=C[N+](=O)[O-])NCCSCc1ccc(CN(C)C)o1 [Ranitidine, reference compound] and give its measured Papp at 4 h, 50 μM.
< 0.4 ×10⁻⁶ cm/s

----------
# collection of pIC50 values tested on human NOX4 (Homo sapiens, UniProt Q9NPH5)
# Sequence (Q9NPH5 whole entry): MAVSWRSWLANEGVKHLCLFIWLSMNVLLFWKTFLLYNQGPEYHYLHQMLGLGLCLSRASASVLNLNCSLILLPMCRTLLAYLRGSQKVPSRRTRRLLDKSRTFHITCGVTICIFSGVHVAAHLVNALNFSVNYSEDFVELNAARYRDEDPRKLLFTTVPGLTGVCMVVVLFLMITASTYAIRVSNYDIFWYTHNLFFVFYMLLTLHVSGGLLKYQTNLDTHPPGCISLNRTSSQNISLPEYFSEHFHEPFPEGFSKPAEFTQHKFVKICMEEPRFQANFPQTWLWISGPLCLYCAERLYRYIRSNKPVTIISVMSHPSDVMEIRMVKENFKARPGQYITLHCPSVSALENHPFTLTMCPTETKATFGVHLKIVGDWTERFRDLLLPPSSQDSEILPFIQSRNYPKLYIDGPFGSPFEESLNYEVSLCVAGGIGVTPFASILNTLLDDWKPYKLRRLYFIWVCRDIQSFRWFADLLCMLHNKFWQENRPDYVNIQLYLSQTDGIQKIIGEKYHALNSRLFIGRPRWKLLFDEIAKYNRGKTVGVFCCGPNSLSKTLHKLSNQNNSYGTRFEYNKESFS
Answers are plain numbers, as −log10 of the molar value.

COMPOUND | READOUT TYPE | RECORDED VALUE
O=C(Nc1nnc(-c2cccc(-c3ccsc3)c2)o1)c1cc(F)cc(C(F)(F)F)c1 [Example 9] | pIC50 | 6.89
O=C(Nc1nnc(-c2cccc(-c3ccoc3)c2)o1)c1ccc(F)c(C(F)(F)F)c1 [Example 10] | pIC50 | 6.80
O=C(Nc1nnc(-c2cccc(C(F)(F)F)c2)o1)c1ccc(F)c(C(F)(F)F)c1 [Example 5] | pIC50 | 6.85

# map each compound to its pIC50
1. O=C(Nc1nnc(-c2cccc(-c3ccsc3)c2)o1)c1ccc(F)c(C(F)(F)F)c1 [Example 8]
2. O=C(Nc1nnc(-c2ccccc2)o1)c1ccc(F)c(C(F)(F)F)c1 [Example 2]
3. O=C(Nc1nnc(-c2cccc(Cl)c2)o1)c1cc(F)cc(C(F)(F)F)c1 [Example 1]
4. O=C(Nc1nnc(-c2cccc(Br)c2)o1)c1cc(F)cc(C(F)(F)F)c1 [Example 13]

6.72
6.36
6.80
6.77

----------
- TARGET ENTITY: UniProtKB P04839
- Sequence (P04839 2-570 limits assumed): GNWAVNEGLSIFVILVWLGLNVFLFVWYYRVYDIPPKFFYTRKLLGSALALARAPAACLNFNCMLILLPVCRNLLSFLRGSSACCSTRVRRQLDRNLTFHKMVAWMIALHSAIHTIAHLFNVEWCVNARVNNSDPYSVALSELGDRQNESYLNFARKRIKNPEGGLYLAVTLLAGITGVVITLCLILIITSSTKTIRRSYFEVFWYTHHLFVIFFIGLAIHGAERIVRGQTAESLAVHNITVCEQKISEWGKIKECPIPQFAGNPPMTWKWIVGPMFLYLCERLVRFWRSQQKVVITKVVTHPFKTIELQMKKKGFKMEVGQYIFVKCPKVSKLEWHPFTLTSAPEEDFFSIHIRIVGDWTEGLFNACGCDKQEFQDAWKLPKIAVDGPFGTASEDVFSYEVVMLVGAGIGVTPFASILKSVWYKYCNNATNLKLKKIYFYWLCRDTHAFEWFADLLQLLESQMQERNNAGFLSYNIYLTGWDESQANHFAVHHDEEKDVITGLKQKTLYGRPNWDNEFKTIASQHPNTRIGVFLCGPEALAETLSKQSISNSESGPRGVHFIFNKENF
READOUT TYPE: pIC50
One number for each entry, as −log10 of the molar value.

# map each compound to its pIC50
1. O=C(Nc1nnc(-c2cccc(C(F)(F)F)c2)o1)c1ccc(F)c(C(F)(F)F)c1
2. O=C(Nc1nnc(-c2cccc(Cl)c2)o1)c1cc(F)cc(C(F)(F)F)c1
3. O=C(Nc1nnc(-c2cccc(-c3ccsc3)c2)o1)c1ccc(F)c(C(F)(F)F)c1
4. O=C(Nc1nnc(-c2cccc(Cl)c2)o1)c1ccc(F)c(C(F)(F)F)c1
5. O=C(Nc1nnc(-c2ccccc2)o1)c1ccc(F)c(C(F)(F)F)c1

1. 6.74
2. 7.05
3. 6.80
4. 6.64
5. 6.59

----------
- EXPERIMENTAL DETAILS: Metabolic stability in human liver microsomes
- Assay type: in vitro ADME
- CONDITION PARAMETERS: human liver microsomes 0.5 mg/ml, 1 μM, 30 minutes, 37° C., NADPH
READOUT TYPE: Human (% ) remaining, microsomal stability (%)
Answers are plain numbers, in %.

MOLECULE | RECORDED VALUE
O=C(Nc1nnc(-c2cccc(Cl)c2)o1)c1cc(F)cc(C(F)(F)F)c1 | 81.7
O=C(Nc1nnc(-c2cccc(Br)c2)o1)c1cc(F)cc(C(F)(F)F)c1 | 79.0
O=C(Nc1nnc(-c2cccc(-c3ccoc3)c2)o1)c1ccc(F)c(C(F)(F)F)c1 | 94.9

Let's switch to this compound now.
Consider the compound O=C(Nc1nnc(-c2cccc(C(F)(F)F)c2)o1)c1cc(F)cc(C(F)(F)F)c1 and give its measured Human (% ) remaining, microsomal stability.
90.0
